Can you tell me fold change of Tryptamine concentration for the items I'm about to list?
- System: Ruminococcus gnavus DSM 108212
- Procedure details: fold change of Tryptamine concentration vs plate DMSO controls (fold change (ratio)); higher = more amine produced, active = hit call of the paper (significant change in both replicates, either direction)
- Experimental context: incubation time: 27 h, anaerobic, 37 °C
Structures can show the parent of a compound that is named as a salt.
// print number alone

Req: Please provide the recorded fold change of Tryptamine concentration for CN(C)CCCN1c2ccccc2[S+]([O-])c2ccc(Cl)cc21 (stereo not drawn) [Chlorpromazine Sulfoxide] (20 µM) , tested on Ruminococcus gnavus DSM 108212.
Resp: 1.04

Req: Can you check OCC(O)CN1CCN(c2ccccc2)CC1 (stereo not drawn) [Dropropizine] (20 µM) next?
Resp: 1.05

Req: Can you check OC[C@H]1O[C@@H](O[C@H]2[C@H](O)[C@@H](O)[C@H](O)O[C@@H]2CO)[C@H](O)[C@@H](O)[C@H]1O [Lactose] (50 µM) next?
Resp: 0.989

Req: Can you check CN1C(C(=O)Nc2ccccn2)=C(O)c2sccc2S1(=O)=O [Tenoxicam] (20 µM) next?
Resp: 1.01

Req: Can you check COCCOC(=O)C1=C(C)NC(C)=C(C(=O)OC(C)C)C1c1cccc([N+](=O)[O-])c1 (stereo not drawn) [Nimodipine] (20 µM) next?
Resp: 0.909

Req: Can you check CC(=O)Oc1ccccc1C(=O)O [Acetylsalicylic acid] (20 µM) next?
Resp: 1.18

Req: Can you check CC(N)C12CC3CC(CC(C3)C1)C2 (stereo not drawn) [Rimantadine hydrochloride] (20 µM) next?
Resp: 1

Req: Can you check CCc1oc2ccccc2c1C(=O)c1cc(Br)c(O)c(Br)c1 [Benzbromarone] (20 µM) next?
Resp: 0.722

====

- System: Klebsiella aerogenes DSM 30053
- Procedure details: fold change of Putrescine concentration vs plate DMSO controls (fold change (ratio)); higher = more amine produced, active = hit call of the paper (significant change in both replicates, either direction)
- Experimental context: incubation time: 27 h, anaerobic, 37 °C
Structures can show the parent of a compound that is named as a salt.
Experimental endpoint: fold change of Putrescine concentration
// print number alone

Req: Please provide the recorded fold change of Putrescine concentration for CN1CC(=O)N2[C@H](c3ccc4c(c3)OCO4)c3[nH]c4ccccc4c3C[C@@H]2C1=O [Tadalafil] (20 µM) , tested on Klebsiella aerogenes DSM 30053.
Resp: 1.01

Req: Can you check Cc1nc2n(c(=O)c1CCN1CCC(c3noc4cc(F)ccc34)CC1)CCCC2O (centres undefined) [Paliperidone] (20 µM) next?
Resp: 1.02

Req: Can you check CC(C)NCC(O)c1ccc(O)c(O)c1 (single isomer, unassigned; (-)) [(-) Isoproterenol hydrochloride] (20 µM) next?
Resp: 0.996

Req: Can you check CN(C)CCN1C(=O)c2ccccc2N(C)c2ccccc21 [Dibenzepine hydrochloride] (20 µM) next?
Resp: 1.01

====

- Tested on: Ruminococcus gnavus DSM 108212
- Procedure details: fold change of 2-Phenylethylamine concentration vs plate DMSO controls (fold change (ratio)); higher = more amine produced, active = hit call of the paper (significant change in both replicates, either direction)
- Experimental context: incubation time: 27 h, anaerobic, 37 °C
Structures can show the parent of a compound that is named as a salt.
Threshold rule: fold change of 2-Phenylethylamine concentration greater than or equal to 1 is TRUE; below that, FALSE.

Req: Could you tell me if the measured fold change of 2-Phenylethylamine concentration of CCC(C)(CN(C)C)OC(=O)c1ccccc1 (centres undefined) [Amyleine hydrochloride] (20 µM) reaches 1 or more?
Resp: FALSE

Req: Can you check NS(=O)(=O)c1cc(C(=O)NN2C[C@@H]3[C@H]4CC[C@H](C4)[C@@H]3C2)ccc1Cl [Tripamide] (20 µM) next?
Resp: TRUE

Req: Can you check Clc1ccc(CO/N=C(\Cn2ccnc2)c2ccc(Cl)cc2Cl)c(Cl)c1 [Oxiconazole nitrate] (20 µM) next?
Resp: FALSE

Req: Can you check N=C(N)NC(=N)NCCc1ccccc1 [Phenformin hydrochloride] (20 µM) next?
Resp: TRUE

Req: Can you check CCOC(=O)N1CCC(=C2c3ccc(Cl)cc3CCc3cccnc32)CC1 [Loratadine] (20 µM) next?
Resp: FALSE

Req: Can you check CCCC(CCC)C(=O)O [Valproic acid] (20 µM) next?
Resp: TRUE

====

- Tested on: Ruminococcus gnavus DSM 108212
- Procedure details: growth (OD595) fold change vs plate DMSO controls (fold change (ratio)); higher = more growth
- Experimental context: incubation time: 27 h, anaerobic, 37 °C
Counter-ions that a name gives are not always drawn.
Threshold rule: growth greater than or equal to 1 is Yes; below that, No.

Req: Could you tell me if the measured growth of COC(=O)[C@H](Cc1ccccc1)NC(=O)[C@H](CC(=O)O)NCCCc1ccc(OC)c(O)c1 [Advantame] (50 µM) reaches 1 or more?
Resp: No

Req: Can you check C[C@]12CC[C@@H]3c4ccc(O)cc4CC[C@H]3[C@@H]1C[C@@H](O)[C@@H]2O [Estriol] (20 µM) next?
Resp: Yes

Req: Can you check CN(C)CCOC(c1ccccc1)c1ccccc1 [Diphenhydramine hydrochloride] (20 µM) next?
Resp: Yes

Req: Can you check Cc1cnc(C(=O)O)c[n+]1[O-] [Acipimox] (20 µM) next?
Resp: No

Req: Can you check Nc1nc(/C(=C/CC(=O)O)C(=O)N[C@@H]2C(=O)N3C(C(=O)O)=CCS[C@H]23)cs1 [Ceftibuten] (20 µM) next?
Resp: Yes

Req: Can you check Nc1ccc(S(=O)(=O)Nc2ncccn2)cc1 [Sulfadiazine] (20 µM) next?
Resp: No

====

Can you tell me growth for the items I'm about to list?
- Test system: Ruminococcus gnavus DSM 108212
- Procedure details: growth (OD595) fold change vs plate DMSO controls (fold change (ratio)); higher = more growth
- Experimental context: incubation time: 27 h, anaerobic, 37 °C
Structures can show the parent of a compound that is named as a salt.
// print number alone

Req: Dear colleague, I am looking for the recorded growth of the following compound: CCN1CCC[C@H]1CNC(=O)c1c(O)c(Cl)cc(Cl)c1OC [Raclopride] (20 µM)
Resp: 0.999

Req: Can you check CCOC(=O)/C=C(C)/C=C/C=C(C)/C=C/c1c(C)cc(OC)c(C)c1C [Etretinate] (20 µM) next?
Resp: 0.927

Req: Can you check CN1CCCN=C1/C=C/c1cccc(O)c1 [Oxantel pamoate] (20 µM) next?
Resp: 0.853

Req: Can you check CCCCN(CCCC)CCCOC(=O)c1ccc(N)cc1 [Butacaine] (20 µM) next?
Resp: 1

Req: Can you check CCN(CC)C(C)CN1c2ccccc2Sc2ccccc21 (stereo unspecified) [Ethopropazine hydrochloride] (20 µM) next?
Resp: 0.823

Req: Can you check CC#CCn1c(N2CCC[C@@H](N)C2)nc2c1c(=O)n(Cc1nc(C)c3ccccc3n1)c(=O)n2C [Linagliptin] (20 µM) next?
Resp: 0.856

Req: Can you check COc1ccc(NS(=O)(=O)c2ccc(N)cc2)nn1 [Sulfamethoxypyridazine] (20 µM) next?
Resp: 1.01

Req: Can you check CCC(C)n1ncn(-c2ccc(N3CCN(c4ccc(OCC5COC(Cn6cncn6)(c6ccc(Cl)cc6Cl)O5)cc4)CC3)cc2)c1=O (stereo unspecified) [Itraconazole] (20 µM) next?
Resp: 0.531

Req: Can you check OC[C@H]1O[C@@H](n2cnc3cncnc32)[C@H](O)[C@@H]1O [Nebularine] (20 µM) next?
Resp: 0.831

Req: Can you check CCOC(=O)CC(=O)N1CCSC1COc1ccccc1OC (stereo unspecified) [Moguisteine] (20 µM) next?
Resp: 0.951

Req: Can you check O=C(N/N=C/c1ccc([N+](=O)[O-])o1)c1ccc(O)cc1 [Nifuroxazide] (20 µM) next?
Resp: 1.2

Req: Can you check CC(C)n1c(/C=C/C(O)CC(O)CC(=O)O)c(-c2ccc(F)cc2)c2ccccc21 (stereo unspecified) [Fluvastatin sodium salt] (20 µM) next?
Resp: 0.918

Req: Can you check COC(=O)N/N=C/c1c[n+]([O-])c2ccccc2[n+]1[O-] [Carbadox] (20 µM) next?
Resp: 0.0392

Req: Can you check CC(C)Cc1ccc([C@H](C)C(=O)O)cc1 [(S,+) Ibuprofen] (20 µM) next?
Resp: 0.974

Req: Can you check CCN[C@H]1C[C@H](C)S(=O)(=O)c2sc(S(N)(=O)=O)cc21 [Dorzolamide hydrochloride] (20 µM) next?
Resp: 1.15

Req: Can you check CCN(CC)CCNC(=O)COc1ccc(OC)cc1 [Mefexamide hydrochloride] (20 µM) next?
Resp: 1.05
